# target_desc: Carbonic anhydrase 7 (Homo sapiens) (UniProt P43166)
# Sequence (P43166 whole entry): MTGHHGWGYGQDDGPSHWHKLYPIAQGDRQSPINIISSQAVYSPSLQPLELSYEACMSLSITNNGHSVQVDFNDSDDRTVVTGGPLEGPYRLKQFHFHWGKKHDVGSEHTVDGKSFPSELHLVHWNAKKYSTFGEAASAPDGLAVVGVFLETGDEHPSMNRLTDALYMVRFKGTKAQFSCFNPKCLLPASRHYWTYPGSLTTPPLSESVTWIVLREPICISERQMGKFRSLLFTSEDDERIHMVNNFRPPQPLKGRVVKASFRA
# assay_comment: Activation of human recombinant CA7 by CO2 hydrase assay
readout_name: KA (µM)
Express your answer in µM, writing the number without its unit.

NCCc1c[nH]cn1 : 37.5
N[C@H](Cc1ccc(O)c(O)c1)C(=O)O : 58.3
N[C@H](Cc1c[nH]cn1)C(=O)O : 0.71
NCc1ccccn1 : 43.7
CNC[C@@H](O)c1ccc(O)c(O)c1 : 60

Prompt line: Quick check: KA of N[C@@H](Cc1ccc(O)c(O)c1)C(=O)O ?
Response line: 58.3

Prompt line: What about this compound? NCCc1c[nH]c2ccc(O)cc12
Response line: 0.93

Prompt line: What about this compound? NCCN1CCOCC1
Response line: 64.3

Prompt line: What about this compound? NCCc1ccccn1
Response line: 27.8

Prompt line: What about this compound? NCCc1ccc(O)c(O)c1
Response line: 0.89

Prompt line: What about this compound? N[C@@H](Cc1ccc(O)cc1)C(=O)O
Response line: 20.3

Prompt line: What about this compound? Nc1ccc(C[C@H](N)C(=O)O)cc1
Response line: 39.6

Prompt line: What about this compound? N[C@H](Cc1c[nH]c2ccccc12)C(=O)O
Response line: 39.6

Prompt line: What about this compound? NCCN1CCNCC1
Response line: 32.5

Prompt line: What about this compound? N[C@@H](Cc1c[nH]cn1)C(=O)O
Response line: 0.92

Prompt line: What about this compound? N[C@@H](Cc1c[nH]c2ccccc12)C(=O)O
Response line: 57.5

---

# target_desc: Carbonic anhydrase 14 (Homo sapiens)
# assay_comment: Activation of human recombinant CA14 by CO2 hydrase assay
readout_name: log10 KA (log10 of the value in µM)
For clarity, the numbers are log10 values of KA expressed in µM.

These solved cases illustrate the format of a correct answer.
N[C@@H](Cc1c[nH]c2ccccc12)C(=O)O : 1.22
N[C@@H](Cc1c[nH]cn1)C(=O)O : -0.05

Prompt line: Quick check: log10 KA of Nc1ccc(C[C@H](N)C(=O)O)cc1 ?
Response line: 1.26

Prompt line: What about this compound? N[C@@H](Cc1ccc(O)cc1)C(=O)O
Response line: 1.34

Prompt line: What about this compound? NCCc1c[nH]cn1
Response line: -2.00

Prompt line: What about this compound? CNC[C@@H](O)c1ccc(O)c(O)c1
Response line: 1.56

Prompt line: What about this compound? N[C@H](Cc1ccc(O)c(O)c1)C(=O)O
Response line: 1.57

Prompt line: What about this compound? NCc1ccccn1
Response line: 1.34

Prompt line: What about this compound? N[C@H](Cc1c[nH]cn1)C(=O)O
Response line: 0.37

Prompt line: What about this compound? NCCN1CCNCC1
Response line: 1.26

Prompt line: What about this compound? N[C@H](Cc1c[nH]c2ccccc12)C(=O)O
Response line: 1.26

---

# target_desc: Carbonic anhydrase 14 (Homo sapiens) (UniProt Q9ULX7)
# Sequence (Q9ULX7 whole entry): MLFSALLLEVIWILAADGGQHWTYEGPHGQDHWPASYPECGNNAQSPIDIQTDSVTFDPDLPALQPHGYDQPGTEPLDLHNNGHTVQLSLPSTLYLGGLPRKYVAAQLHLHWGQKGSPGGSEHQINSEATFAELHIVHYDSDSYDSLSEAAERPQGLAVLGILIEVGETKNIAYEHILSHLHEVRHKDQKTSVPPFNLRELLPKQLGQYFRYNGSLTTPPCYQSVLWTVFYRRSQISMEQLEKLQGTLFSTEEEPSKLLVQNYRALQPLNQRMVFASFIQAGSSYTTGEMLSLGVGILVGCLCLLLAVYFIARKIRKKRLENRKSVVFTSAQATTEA
# assay_comment: Activation of human recombinant CA14 by CO2 hydrase assay
# KA per entry
Express your answer in µM, writing the number without its unit.

NCCc1ccc(O)c(O)c1 : 14.6
N[C@@H](Cc1ccc(O)c(O)c1)C(=O)O : 12.1
NCCc1ccccn1 : 6.9
NCCc1c[nH]c2ccc(O)cc12 : 6.5

Shifting focus to the compound that follows.
Prompt line: Quick check: KA of NCCN1CCOCC1 ?
Response line: 5.4

Data origin: ChEMBL document CHEMBL1145387
